Parameter: SKOV-3 SI. Scope: all listed entries.
- System: SKOV-3
- protocolDescription: MTT assay, SKOV-3
- Assay type: cell-based, human
- cond: Selectivity Index = IC50 HDF / IC50 SKOV-3
experimentalEndpoint: SKOV-3 SI

>>> result("CC(=O)OC1CCC2(C)C(CCC3(C)C2CC=C2C4CC(C)(C)CCC4(C(=O)OCCCCCOC(=O)C45CCC(C)(C)CC4C4=CCC6C7(C)CCC(OC(C)=O)C(C)(C)C7CCC6(C)C4(C)CC5)CCC23C)C1(C)C (stereo not drawn)")
1.34
>>> result("CC(=O)OC1CCC2(C)C(CCC3(C)C2CC=C2C4CC(C)(C)CCC4(C(=O)OCCCCCCCCOC(=O)C45CCC(C)(C)CC4C4=CCC6C7(C)CCC(OC(C)=O)C(C)(C)C7CCC6(C)C4(C)CC5)CCC23C)C1(C)C (stereo not drawn)")
2.28
>>> result("CC(=O)OC1CCC2(C)C(CCC3(C)C2CC=C2C4CC(C)(C)CCC4(C(=O)OCCOC(=O)C45CCC(C)(C)CC4C4=CCC6C7(C)CCC(OC(C)=O)C(C)(C)C7CCC6(C)C4(C)CC5)CCC23C)C1(C)C (stereo not drawn)")
2.32
>>> result("CC(=O)OC1CCC2(C)C(CCC3(C)C2CC=C2C4CC(C)(C)CCC4(C(=O)OCC=CCOC(=O)C45CCC(C)(C)CC4C4=CCC6C7(C)CCC(OC(C)=O)C(C)(C)C7CCC6(C)C4(C)CC5)CCC23C)C1(C)C (stereo not drawn) [Compound 3f]")
0.58
>>> result("CC(=O)OC1CCC2(C)C(CCC3(C)C2CC=C2C4CC(C)(C)CCC4(C(=O)OCCCOC(=O)C45CCC(C)(C)CC4C4=CCC6C7(C)CCC(OC(C)=O)C(C)(C)C7CCC6(C)C4(C)CC5)CCC23C)C1(C)C (stereo not drawn)")
0.97
>>> result("CC(=O)OC1CCC2(C)C(CCC3(C)C2CC=C2C4CC(C)(C)CCC4(C(=O)OCCCCCCCOC(=O)C45CCC(C)(C)CC4C4=CCC6C7(C)CCC(OC(C)=O)C(C)(C)C7CCC6(C)C4(C)CC5)CCC23C)C1(C)C (stereo not drawn)")
0.96
>>> result("CC(=O)OC1CCC2(C)C(CCC3(C)C2CC=C2C4CC(C)(C)CCC4(C(=O)OCCCCCCCCCCOC(=O)C45CCC(C)(C)CC4C4=CCC6C7(C)CCC(OC(C)=O)C(C)(C)C7CCC6(C)C4(C)CC5)CCC23C)C1(C)C (stereo not drawn)")
0.61
>>> result("CC(=O)OC1CCC2(C)C(CCC3(C)C2CC=C2C4CC(C)(C)CCC4(C(=O)OCCCCCCCCCCCCOC(=O)C45CCC(C)(C)CC4C4=CCC6C7(C)CCC(OC(C)=O)C(C)(C)C7CCC6(C)C4(C)CC5)CCC23C)C1(C)C (stereo not drawn)")
1.43
>>> result("CC(=O)OC1CCC2(C)C(CCC3(C)C2CC=C2C4CC(C)(C)CCC4(C(=O)OCCCCCCCCCCCOC(=O)C45CCC(C)(C)CC4C4=CCC6C7(C)CCC(OC(C)=O)C(C)(C)C7CCC6(C)C4(C)CC5)CCC23C)C1(C)C (stereo not drawn)")
2.00

----------
- Tested on: SKBR-3, SKOV-3, PC-3, and U-87 cancer cell lines
- protocolDescription: MTT assay, four cancer cell lines taken together
- Format: cell-based, human
- cond: Homo sapiens, MTT; across SKBR-3, SKOV-3, PC-3, U-87
- Description: The cytotoxic activity of oleanolic acid (mother compound, 1, Figure 2) and its 14 derivatives (3a–3n, Figure 2) was tested in vitro using the standard MTT method based on viability assay, e.g., [44] against carcinoma cell lines: SKBR-3, SKOV-3, PC-3, U-87, and one normal cell line: HDF. Human cancer cells: SKBR-3 and SKOV-3 were cultured in McCoy’s Modified Medium; PC-3 was cultured in an F-12K medium; U-87 was cultured in EMEM medium; HDF was cultured in Fibroblast Basal Medium. […]
pIC50: −log10 of the molar value.
experimentalEndpoint: pIC50

>>> result("CC(=O)OC1CCC2(C)C(CCC3(C)C2CC=C2C4CC(C)(C)CCC4(C(=O)OCCCCCCCCCCOC(=O)C45CCC(C)(C)CC4C4=CCC6C7(C)CCC(OC(C)=O)C(C)(C)C7CCC6(C)C4(C)CC5)CCC23C)C1(C)C (stereo not shown)")
"5.15 to 5.33"
>>> result("CC(=O)OC1CCC2(C)C(CCC3(C)C2CC=C2C4CC(C)(C)CCC4(C(=O)OCCCCCCCCCCCOC(=O)C45CCC(C)(C)CC4C4=CCC6C7(C)CCC(OC(C)=O)C(C)(C)C7CCC6(C)C4(C)CC5)CCC23C)C1(C)C (stereo not shown)")
"~5.70"
>>> result("CC(=O)OC1CCC2(C)C(CCC3(C)C2CC=C2C4CC(C)(C)CCC4(C(=O)OCCCCCCCCOC(=O)C45CCC(C)(C)CC4C4=CCC6C7(C)CCC(OC(C)=O)C(C)(C)C7CCC6(C)C4(C)CC5)CCC23C)C1(C)C (stereo not shown)")
"5.35 to 5.60"
>>> result("CC(=O)OC1CCC2(C)C(CCC3(C)C2CC=C2C4CC(C)(C)CCC4(C(=O)OCCOC(=O)C45CCC(C)(C)CC4C4=CCC6C7(C)CCC(OC(C)=O)C(C)(C)C7CCC6(C)C4(C)CC5)CCC23C)C1(C)C (stereo not shown)")
"5.35 to 5.60"

----------
Overview of recorded IC50 for various compounds
- Tested on: SKBR-3, SKOV-3, PC-3, and U-87 cancer cell lines
- protocolDescription: MTT assay, four cancer cell lines taken together
- Assay type: cell-based, human
- cond: Homo sapiens, MTT; across SKBR-3, SKOV-3, PC-3, U-87
experimentalEndpoint: IC50

>>> result("CC(=O)OC1CCC2(C)C(CCC3(C)C2CC=C2C4CC(C)(C)CCC4(C(=O)OCCCCCCCCCOC(=O)C45CCC(C)(C)CC4C4=CCC6C7(C)CCC(OC(C)=O)C(C)(C)C7CCC6(C)C4(C)CC5)CCC23C)C1(C)C (stereo not drawn)")
"~2 µM"
>>> result("CC(=O)OC1CCC2(C)C(CCC3(C)C2CC=C2C4CC(C)(C)CCC4(C(=O)OCC=CCOC(=O)C45CCC(C)(C)CC4C4=CCC6C7(C)CCC(OC(C)=O)C(C)(C)C7CCC6(C)C4(C)CC5)CCC23C)C1(C)C (stereo not drawn) [Compound 3f]")
"4.65 to 7.06 µM"
>>> result("CC(=O)OC1CCC2(C)C(CCC3(C)C2CC=C2C4CC(C)(C)CCC4(C(=O)OCCCCCOC(=O)C45CCC(C)(C)CC4C4=CCC6C7(C)CCC(OC(C)=O)C(C)(C)C7CCC6(C)C4(C)CC5)CCC23C)C1(C)C (stereo not drawn)")
"2.5 to 4.5 µM"
>>> result("CC(=O)OC1CCC2(C)C(CCC3(C)C2CC=C2C4CC(C)(C)CCC4(C(=O)OCCCCCCCOC(=O)C45CCC(C)(C)CC4C4=CCC6C7(C)CCC(OC(C)=O)C(C)(C)C7CCC6(C)C4(C)CC5)CCC23C)C1(C)C (stereo not drawn)")
"~2 µM"
>>> result("CC(=O)OC1CCC2(C)C(CCC3(C)C2CC=C2C4CC(C)(C)CCC4(C(=O)OCOC(=O)C45CCC(C)(C)CC4C4=CCC6C7(C)CCC(OC(C)=O)C(C)(C)C7CCC6(C)C4(C)CC5)CCC23C)C1(C)C (stereo not drawn)")
"~2 µM"
>>> result("CC(=O)OC1CCC2(C)C(CCC3(C)C2CC=C2C4CC(C)(C)CCC4(C(=O)OCCCCCCOC(=O)C45CCC(C)(C)CC4C4=CCC6C7(C)CCC(OC(C)=O)C(C)(C)C7CCC6(C)C4(C)CC5)CCC23C)C1(C)C (stereo not drawn)")
"4.65 to 7.06 µM"
>>> result("CC(=O)OC1CCC2(C)C(CCC3(C)C2CC=C2C4CC(C)(C)CCC4(C(=O)OCC=CCOC(=O)C45CCC(C)(C)CC4C4=CCC6C7(C)CCC(OC(C)=O)C(C)(C)C7CCC6(C)C4(C)CC5)CCC23C)C1(C)C (stereo not drawn) [Compound 3e]")
"2.5 to 4.5 µM"
>>> result("CC(=O)OC1CCC2(C)C(CCC3(C)C2CC=C2C4CC(C)(C)CCC4(C(=O)OCCCCOC(=O)C45CCC(C)(C)CC4C4=CCC6C7(C)CCC(OC(C)=O)C(C)(C)C7CCC6(C)C4(C)CC5)CCC23C)C1(C)C (stereo not drawn)")
"2.5 to 4.5 µM"
>>> result("CC(=O)OC1CCC2(C)C(CCC3(C)C2CC=C2C4CC(C)(C)CCC4(C(=O)OCCCOC(=O)C45CCC(C)(C)CC4C4=CCC6C7(C)CCC(OC(C)=O)C(C)(C)C7CCC6(C)C4(C)CC5)CCC23C)C1(C)C (stereo not drawn)")
"2.5 to 4.5 µM"
